Form field: koff (one value per entry).
Biological target: T1, SARS-CoV-2 RBD (Wuhan-1) (SARS-CoV-2, Wuhan-1, UniProt P0DTC2)
T1 construct: source: Expi293, transfected, purified (Ni-NTA, SEC)
Test: SPR
Settings: both partners purified
The answer is to be given in s⁻¹; state only the numeric part.

Below, 3 binders whose answers are already recorded.
{"binder": "eCC6.33.6 (antibody, V domains shown, copies: 2 + 2) VH: QVQLVQSGAEVKKPGSSVKVSCKAPGGTFSSSAISWVRQAPGQGLEWMGGIIPILDITTYAQKFQGRVTITADKSTSTAFMELSSLRSEDTAVYYCALRNQWDLLIYWGQGTLVTVSS VL: EIVLTQSPGTLSLSPGERATLSCRASQSVSSHYLAWYQQKPGQAPRLLIYGASSRYTGIPDRFSGSGSGTDFTLTISRLEPEDFAVYYCQHYGSSHWTFGQGTKLEIK", "koff [s⁻¹]": 0.00167}
{"binder": "eCC6.30.9 (antibody, V domains shown, copies: 2 + 2) VH: QVQLVQSGAEVKKPGSSVKVSCKASGGIFSIYAITWVRQAPGQGLEWMGAIIPIIGTANYAQKFQGRVTITADKSTSTAYMELSSLRSEDTAVYYCARDFRYCSSTRCYFNFDPWGQGTLVTVSS VL: DIQMTQSPSSLSASVGDRVTITCRASQSISNYLNWYQQEAGKAPKLLIYTASSLQSGVPSRFSGSGSGTDFTLTISSLQPEDFATYYCQQSYSTPRTFGQGTKVDIK", "koff [s⁻¹]": 0.000202}
{"binder": "eCC6.33.9 (antibody, V domains shown, copies: 2 + 2) VH: QVQLVQSGAEVKKPGSSVKVSCKSSGGTFSSSAYSWVRQAPGQGLEWMGTIIPILDITNYAQKFQGRVTITADKSTSTAFMELSSLRSEDTAVYYCAQRNQWDLIVYWGQGTLVTVSS VL: EIVLTQSPGTLSLSPGERATLSCRASQWVSSSYIAWYQQKPGQAPRLLIYGAESRATGIPDRFSGSGSGTDFTLTISRLEPEDFAVYYCQHYGSSSWTFGQGTKLEIK", "koff [s⁻¹]": 0.00218}

# context switch: different binder, same koff
Quick note, koff for eCC6.33.5 (antibody, V domains shown, copies: 2 + 2) VH: QVQLVQSGAEVKKPGSSVKVSCKAVGGTFSSSAIYWVRQAPGQGLEWMGGIIPILDIANYAQKFQGRVTITADKSTSTAFMELSSLRSEDTAVYYCALRNQWDLVVYWGQGTLVTVSS VL: EIVLTQSPGTLSLSPGERATLSCHASQSVSSSYLAWYQQKPGQAPRLLIYGAESRATGIPDRFSGSGSGTDFTLTISRLEPEDFAVYYCQHYGSSTWTFGQGTKLEIK landed at 0.00411

meta.source: paper PMC9367177
